run.description: PBMC cell counts (total, live, viability; trypan blue, Countess) with and without LPS and test articles (Example 9)
Format: cell-based, human
particulars: human, PBMCs, PBMC + LPS(5 ug/ml) + compound 0.1 uM; 24 hr
Where a SMILES comes first, the peptide text is derived from it. [ ]: non-standard residue; d: D form. Hyp = O=C(O)[C@@H]1C[C@@H](O)CN1
# Lookup of reported viability at 24 h, 0.1 µM keyed by entry
metric: viability at 24 h, 0.1 µM (%)

compound | units.label | reported.value
CC(C)C[C@H](NC(=O)CNC(=O)[C@H](CC(C)C)NC(=O)[C@H](CCC(N)=O)NC(=O)CNC(=O)[C@@H]1C[C@@H](O)CN1)C(=O)N[C@@H](C)C(=O)NCC(=O)N1CCC[C@H]1C(=O)N[C@@H](CCCCN)C(=O)O [YDE-011] (H-[Hyp]GQLGLAGPK-OH) | % | 82
CC(C)C[C@H](NC(=O)CNC(=O)[C@H](CC(=O)O)NC(=O)[C@H](CCC(N)=O)NC(=O)CNC(=O)[C@@H]1C[C@@H](O)CN1)C(=O)N[C@@H](C)C(=O)NCC(=O)N1CCC[C@H]1C(=O)N[C@@H](CCCCN)C(=O)O [YY-101] (H-[Hyp]GQDGLAGPK-OH; N-terminus and C-terminus assumed) | % | 75.7
CC(C)C[C@H](NC(=O)[C@H](CCC(N)=O)NC(=O)CNC(=O)[C@@H]1C[C@@H](O)CN1)C(=O)NCC(=O)O [YDE-043] (H-[Hyp]GQLG-OH; N-terminus and C-terminus assumed) | % | 82

====

run.description: PBMC cell counts (total, live, viability; trypan blue, Countess) with and without LPS and test articles (Example 9)
Type: cell-based, human
particulars: human, PBMCs, PBMC + LPS(5 ug/ml) + compound 1 uM; 24 hr
Description: Treatment Human PBMCs were pretreated with YY-101, YDE-011 and YDE-043 or reference compound; Xiidra® at various concentration (ranging from 1 nM to 100 uM) for 2 h before stimulation. An equal volume of 0.5% DMSO was used as a vehicle control. Then, the cells were treated with LPS at 5 ug/ml. […] The number of PBMCs was measured after 24 hr of treatment. […] The number of PBMCs was measured using a Countess automated cell counter (Thermo fisher, USA).
Where a SMILES comes first, the peptide text is derived from it. [ ]: non-standard residue; d: D form. Hyp = O=C(O)[C@@H]1C[C@@H](O)CN1
# Lookup of reported viability at 24 h, 1 µM keyed by entry

compound | viability at 24 h, 1 µM
CC(C)C[C@H](NC(=O)[C@H](CCC(N)=O)NC(=O)CNC(=O)[C@@H]1C[C@@H](O)CN1)C(=O)NCC(=O)O [YDE-043] (H-[Hyp]GQLG-OH; N-terminus and C-terminus assumed) | 78%
CC(C)C[C@H](NC(=O)CNC(=O)[C@H](CC(=O)O)NC(=O)[C@H](CCC(N)=O)NC(=O)CNC(=O)[C@@H]1C[C@@H](O)CN1)C(=O)N[C@@H](C)C(=O)NCC(=O)N1CCC[C@H]1C(=O)N[C@@H](CCCCN)C(=O)O [YY-101] (H-[Hyp]GQDGLAGPK-OH; N-terminus and C-terminus assumed) | 66.7%
CC(C)C[C@H](NC(=O)CNC(=O)[C@H](CC(C)C)NC(=O)[C@H](CCC(N)=O)NC(=O)CNC(=O)[C@@H]1C[C@@H](O)CN1)C(=O)N[C@@H](C)C(=O)NCC(=O)N1CCC[C@H]1C(=O)N[C@@H](CCCCN)C(=O)O [YDE-011] (H-[Hyp]GQLGLAGPK-OH) | 79.7%

The origin of these recorded values is patent US20230146455A1.
